Tested on: velvetleaf
Assay: Foliar spread test for upland field
Format: in vivo, Abutilon theophrasti
Set-up: key: 0: normal development; 1: Less damaged; 2: Slightly damaged; 3: Moderately damaged; 4: Severely damaged; 5: All killed
Settings: foliar spray 500 ppm, 3 weeks, rank vs non-treated
Property measured: Effects Velvetleaf
Keep the answer to the number alone.

Provide only the value of recorded Effects Velvetleaf for CCCC(Oc1cccc(C(F)(F)F)c1)c1nc2cc(C#N)c(Cl)cc2o1 (stereo not shown)
3

Name the recorded Effects Velvetleaf of the molecule listed here: CCC(Oc1ccc(F)c(C(F)(F)F)c1)c1nc2cc(Cl)ccc2o1 (stereo not shown)
3

// fetch Effects Velvetleaf given entry CC(Oc1ccc(F)c(C(F)(F)F)c1)c1nc2cc(Cl)ccc2o1 (stereo not shown)
1

Annotate the molecule CCC(Oc1ccc(F)c(C(F)(F)F)c1)c1nc2cc(F)ccc2o1 (stereo not shown) with its measured Effects Velvetleaf.
2

Origin of the recorded values: patent US6706664B1
